species: Cavia porcellus; test: Selectivity ratio of Ki for Dunkin Hartley guinea pig brain sigma-2 receptor to Ki for Dunkin Hartley guinea pig brain sigma-1 receptor
Under this convention, satisfied denotes Ratio Ki strictly below 60 and not satisfied denotes Ratio Ki at or above 60.

[[record]]
compound = "Cc1nc(-c2ccccc2)nc(OCCCN2CCCC2)c1C"
label = "not satisfied"

[[record]]
compound = "FC(F)(F)c1cc(OCCCN2CCCC2)nc(-c2ccccc2)n1"
label = "satisfied"

[[record]]
compound = "Cc1cc(OCCCN2CC(C)CC(C)C2)nc(-c2ccccc2)n1 (stereo not given)"
label = "satisfied"

[[record]]
compound = "Cc1nc(-c2ccccc2)nc(OCCCN2CCCC2)c1F"
label = "not satisfied"

[[record]]
compound = "CCCc1cc(OCCCN2CCCC2)nc(-c2ccccc2)n1"
label = "satisfied"

[[record]]
compound = "CCCc1cc(OCCCN2CCCCC2)nc(-c2ccccc2)n1"
label = "satisfied"

[[record]]
compound = "CCc1cc(OCCCN2CCCC2)nc(-c2ccccc2)n1"
label = "not satisfied"

[[record]]
compound = "COc1cc(OCCCN2CCCCC2)nc(-c2ccccc2)n1"
label = "satisfied"

[[record]]
compound = "Cc1cc(OC/C=C/CN2CCOCC2)nc(-c2ccccc2)n1"
label = "satisfied"

[[record]]
compound = "Cc1nc(-c2ccccc2)nc(OCCCN2CCCCC2)c1C"
label = "not satisfied"


----------
Measured pKi, listed per entry.
assay: Displacement of [3H]-DTG from sigma-2 receptor in Dunkin Hartley guinea pig brain membrane after 120 mins by liquid scintillation counting analysis in presence of (+)-SKF10047; parameters: species or system Cavia porcellus
pKi: −log10 of the molar value.
metric_name: pKi

[[record]]
compound = "Cc1cc(OCCCN2CCN(C(=O)OC(C)(C)C)CC2)nc(-c2ccccc2)n1"
reading_qualifier = "<"
test_result = 5.70

[[record]]
compound = "Cc1nc(-c2ccc(Cl)c(Cl)c2)nc(OCCCN2CCCCC2)c1Cl"
reading_qualifier = "<"
test_result = 5.70

[[record]]
compound = "Cc1cc(OCCCN2CC(C)CC(C)C2)nc(-c2ccccc2)n1 (stereo not drawn)"
reading_qualifier = "="
test_result = 5.78

[[record]]
compound = "Cc1cc(OCCCN2CCC(=O)CC2)nc(-c2ccccc2)n1"
reading_qualifier = "="
test_result = 5.83

[[record]]
compound = "Cc1cc(OC/C=C/CN2CCOCC2)nc(-c2ccccc2)n1"
reading_qualifier = "="
test_result = 5.84

[[record]]
compound = "Cc1nc(-c2ccc(F)cc2)nc(OCCCN2CCCCC2)c1Cl"
reading_qualifier = "="
test_result = 5.88

[[record]]
compound = "FC(F)(F)c1cc(OCCCN2CCCC2)nc(-c2ccccc2)n1"
reading_qualifier = "="
test_result = 5.88

[[record]]
compound = "CC(C)c1cc(OCCCN2CCCCC2)nc(-c2ccccc2)n1"
reading_qualifier = "="
test_result = 5.74

[[record]]
compound = "COc1cc(OCCCN2CCCCC2)nc(-c2ccccc2)n1"
reading_qualifier = "="
test_result = 6.05

[[record]]
compound = "Cc1cc(OCCCN2CCCN(C)CC2)nc(-c2ccccc2)n1"
reading_qualifier = "="
test_result = 5.89

[[record]]
compound = "Cc1cc(OCCCN2C(C)(C)CCCC2(C)C)nc(-c2ccccc2)n1"
reading_qualifier = "<"
test_result = 5.70

[[record]]
compound = "Cc1nc(-c2ccccc2)nc(OCCCN2CCCC2)c1Cl"
reading_qualifier = "="
test_result = 5.77

[[record]]
compound = "CCN(CC)CCCOc1cc(C)nc(-c2ccccc2)n1"
reading_qualifier = "="
test_result = 5.88

[[record]]
compound = "CCc1cc(OCCCN2CCCC2)nc(-c2ccccc2)n1"
reading_qualifier = "="
test_result = 5.84

[[record]]
compound = "Cc1cc(OCCCN2CCN(C)CC2)nc(-c2ccccc2)n1"
reading_qualifier = "="
test_result = 5.88

[[record]]
compound = "Cc1nc(-c2ccc(F)c(F)c2)nc(OCCCN2CCCCC2)c1Cl"
reading_qualifier = "="
test_result = 6.03

[[record]]
compound = "Cc1cc(OCCCN2CCCC2)nc(-c2ccccc2)n1"
reading_qualifier = "="
test_result = 5.90

[[record]]
compound = "Cc1nc(C2CC2)nc(OCCCN2CCCCC2)c1Cl"
reading_qualifier = "="
test_result = 5.88

[[record]]
compound = "Cc1cc(OCCCN2CCN(c3ccccc3)CC2)nc(-c2ccccc2)n1"
reading_qualifier = "<"
test_result = 5.70

[[record]]
compound = "Cc1nc(-c2ccc3ccccc3c2)nc(OCCCN2CCCCC2)c1Cl"
reading_qualifier = "<"
test_result = 5.70

[[record]]
compound = "Cc1cc(OCCCCCCN2CCOCC2)nc(-c2ccccc2)n1"
reading_qualifier = "<"
test_result = 5.70

[[record]]
compound = "Cc1nc(-c2ccccc2)nc(OCCCN2CCCCC2)c1Cl"
reading_qualifier = "="
test_result = 5.78

[[record]]
compound = "Cc1nc(-c2ccc(Cl)cc2)nc(OCCCN2CCCCC2)c1Cl"
reading_qualifier = "="
test_result = 5.85

[[record]]
compound = "Cc1cc(OCCCN2CCNCC2)nc(-c2ccccc2)n1"
reading_qualifier = "="
test_result = 5.92

[[record]]
compound = "COc1ccc(-c2nc(C)c(Cl)c(OCCCN3CCCCC3)n2)cc1"
reading_qualifier = "="
test_result = 5.89

[[record]]
compound = "Cc1cc(OCCCN2CCCCC2)nc(-c2ccccc2)n1"
reading_qualifier = "="
test_result = 5.98

[[record]]
compound = "FC(F)(F)c1cc(OCCCN2CCCCC2)nc(-c2ccccc2)n1"
reading_qualifier = "="
test_result = 5.88

[[record]]
compound = "COc1cc(OCCCN2CCCC2)nc(-c2ccccc2)n1"
reading_qualifier = "="
test_result = 6.05

[[record]]
compound = "c1ccc(-c2cc(OCCCN3CCCCC3)nc(-c3ccccc3)n2)cc1"
reading_qualifier = "<"
test_result = 5.70

[[record]]
compound = "Cc1cc(OCCCCN2CCOCC2)nc(-c2ccccc2)n1"
reading_qualifier = "="
test_result = 5.97

[[record]]
compound = "Cc1nc(-c2ccccc2)nc(OCCCN2CCCC2)c1C"
reading_qualifier = "="
test_result = 5.89

[[record]]
compound = "Cc1nc(-c2ccccc2)nc(OCCCN2CCCCC2)c1F"
reading_qualifier = "="
test_result = 5.87

[[record]]
compound = "Cc1nc(C)c(Cl)c(OCCCN2CCCCC2)n1"
reading_qualifier = "="
test_result = 5.97

[[record]]
compound = "Cc1nc(-c2ccc(C(F)(F)F)cc2)nc(OCCCN2CCCCC2)c1Cl"
reading_qualifier = "="
test_result = 5.75

[[record]]
compound = "c1ccc(-c2nc(OCCCN3CCCC3)cc(C3CC3)n2)cc1"
reading_qualifier = "<"
test_result = 5.70

[[record]]
compound = "Cc1cc(OCCN2CCOCC2)nc(-c2ccccc2)n1"
reading_qualifier = "<"
test_result = 5.70

[[record]]
compound = "Cc1ccc(-c2nc(C)c(Cl)c(OCCCN3CCCCC3)n2)cc1"
reading_qualifier = "="
test_result = 5.81

[[record]]
compound = "CCCc1cc(OCCCN2CCCCC2)nc(-c2ccccc2)n1"
reading_qualifier = "="
test_result = 5.84


----------
target: Sigma non-opioid intracellular receptor 1 (Cavia porcellus, UniProt Q60492); assay: Displacement of [3H]-(+)-pentazocine from sigma-1 receptor in Dunkin Hartley guinea pig brain membranes after 180 mins by liquid scintillation counting analysis
Sequence (Q60492 whole entry): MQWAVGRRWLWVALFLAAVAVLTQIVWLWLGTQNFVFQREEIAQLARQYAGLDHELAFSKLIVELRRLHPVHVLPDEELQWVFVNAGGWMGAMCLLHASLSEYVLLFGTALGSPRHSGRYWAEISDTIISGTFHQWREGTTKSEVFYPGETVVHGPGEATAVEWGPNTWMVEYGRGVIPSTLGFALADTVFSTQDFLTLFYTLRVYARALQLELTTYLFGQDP
metric_name: Ki

[[record]]
chem_smiles = "Cc1nc(-c2ccccc2)nc(OCCCN2CCCC2)c1Cl"
test_result = "4.02 nM"

[[record]]
chem_smiles = "CCc1cc(OCCCN2CCCCC2)nc(-c2ccccc2)n1"
test_result = "20.5 nM"

[[record]]
chem_smiles = "Cc1nc(-c2ccc(F)c(F)c2)nc(OCCCN2CCCCC2)c1Cl"
test_result = "0.97 nM"

[[record]]
chem_smiles = "Cc1cc(OCCN2CCOCC2)nc(-c2ccccc2)n1"
test_result = "> 2000 nM"

